- Target Entity: G12D-mutant human KRAS (amino acid residues 1-188) (Homo sapiens, UniProt P01116, G12D)
- Construct: G12D or G12C-mutant human KRAS (amino acid residues 1-188) with FLAG tag; made in house; host or cells: E. coli
- Test: KRAS Binding Disruption Assay (AlphaScreen; biotinylated KRpep-2d analogue or RAF1-RBD), G12D
- Measurement Setup: KRAS G12D; geometric mean; read-out: KRAS GMean IC50 (uM) MUTATION: G12D
Listing of recorded IC50 by entry.

// worked examples, IC50 included
Oc1cc(-c2ccc3c(N4C[C@H]5CC[C@@H](C4)N5)nc(N4CCC(O)C4)nc3c2F)c2ccccc2c1 (some centres unmarked)    0.0001 to 10 µM
CN1CCC[C@H]1COc1nc(N2C[C@H]3CC[C@@H](C2)N3)c2ccc(N3CCNc4ccccc43)c(F)c2n1    0.0001 to 10 µM
CN(C)c1cccc(COc2nc(N3C[C@H]4CC[C@@H](C3)N4)c3cc(Cl)c(-c4c(O)cccc4F)c(F)c3n2)c1    0.0001 to 10 µM
CN1CCC[C@H]1COc1nc(N2C[C@H]3CC[C@@H](C2)N3)c2ccc(-c3cc(O)cc4ccccc34)cc2n1    0.0001 to 10 µM
CN1CCC[C@H]1COc1nc(N2C[C@H]3CC[C@@H](C2)N3)c2ccc(-c3cc(N)cc(F)c3F)cc2n1    10 to 100 µM

Ask: Query (compound): `O=C(N[C@H]1CC[C@@H](O)C1)N1[C@@H]2CC[C@H]1CN(c1nc(OCC34CCCN3CCC4)nc3cc(-c4cc(O)cc5ccccc45)ccc13)C2` ; field requested: IC50
Result: 0.0001 to 10 µM

---

Listing of recorded IC50 by entry.
- Target Entity: G12V-mutant human KRAS (amino acid residues 1-188) (Homo sapiens, UniProt P01116, G12V)
- Construct: G12V-mutant human KRAS (amino acid residues 1-188) with FLAG tag was purified from E. coli; made in house; host or cells: E. coli
- Test: KRAS Binding Competition Assay (AlphaScreen; biotinylated KRpep-2d analogue), G12V
- Measurement Setup: geometric mean, read-out: KRAS GMean IC50 (uM) MUTATION: G12V

// worked examples, IC50 included
C[C@@H](Oc1nc(N2C[C@H]3CC[C@@H](C2)N3)c2ccc(-c3cc(O)cc4ccccc34)cc2n1)[C@@H]1CCCN1C    0.0001 to 10 µM
CN1CC[C@@H](NC(=O)N2[C@@H]3CC[C@H]2CN(c2nc(OCC45CCCN4CCC5)nc4c(F)c(-c5cc(O)cc6ccccc56)ccc24)C3)C1    0.0001 to 10 µM
O=C(CN1CCCS1(=O)=O)N1[C@@H]2CC[C@H]1CN(c1nc(OCC34CCCN3CCC4)nc3cc(-c4cc(O)cc5ccccc45)ccc13)C2    0.0001 to 10 µM
CN1CCC[C@H]1COc1nc(N2[C@@H]3CC[C@H]2CN(C(=O)[C@@H]2C[C@@H](O)CN2)C3)c2ccc(-c3cc(O)cc4ccccc34)cc2n1 [P-0202]    10 to 100 µM
O=C(CC1CCNC1)N1[C@@H]2CC[C@H]1CN(c1nc(OCC34CCCN3CCC4)nc3cc(-c4cc(O)cc5ccccc45)ccc13)C2 (some centres unmarked)    0.0001 to 10 µM

Ask: # returns recorded IC50 (system: G12V-mutant human KRAS (amino acid residues 1-188) (Homo sapiens, UniProt P01116, G12V)) for `CS(=O)(=O)CC(=O)N1[C@@H]2CC[C@H]1CN(c1nc(OCC34CCCN3CCC4)nc3c(F)c(-c4cc(O)cc5ccccc45)ccc13)C2`
Result: 0.0001 to 10 µM

Ask: # returns recorded IC50 (system: G12V-mutant human KRAS (amino acid residues 1-188) (Homo sapiens, UniProt P01116, G12V)) for `CN1CCC[C@H]1COc1nc(N2[C@@H]3CC[C@H]2CN(C(=O)CCCn2ccnc2)C3)c2ccc(-c3cc(O)cc4ccccc34)cc2n1`
Result: 10 to 100 µM

Ask: # returns recorded IC50 (system: G12V-mutant human KRAS (amino acid residues 1-188) (Homo sapiens, UniProt P01116, G12V)) for `CN(C)CCCS(=O)(=O)N1[C@@H]2CC[C@H]1CN(c1nc(OC[C@@H]3CCCN3C)nc3c(F)c(-c4cc(O)cc5ccccc45)ccc13)C2`
Result: 10 to 100 µM

Ask: # returns recorded IC50 (system: G12V-mutant human KRAS (amino acid residues 1-188) (Homo sapiens, UniProt P01116, G12V)) for CN1CCC[C@H]1COc1nc(N2[C@@H]3CC[C@H]2CN(CC(O)CN2CCOCC2)C3)c2ccc(-c3cc(O)cc4ccccc34)cc2n1 (some centres unmarked)
Result: 10 to 100 µM

Ask: # returns recorded IC50 (system: G12V-mutant human KRAS (amino acid residues 1-188) (Homo sapiens, UniProt P01116, G12V)) for `CN1CCC[C@H]1COc1nc(N2C[C@H]3CC[C@@H](C2)N3)c2ccc(-c3c[nH]c4ccc(Cl)cc34)cc2n1`
Result: 100 to 1000 µM

Ask: # returns recorded IC50 (system: G12V-mutant human KRAS (amino acid residues 1-188) (Homo sapiens, UniProt P01116, G12V)) for `CN1CCC[C@H]1COc1nc(N2CC3COCC(C2)N3)c2ccc(-c3cc(O)cc4ccccc34)c(F)c2n1`
Result: 0.0001 to 10 µM

---

- Target Entity: G12V-mutant human KRAS (amino acid residues 1-188) (Homo sapiens, UniProt P01116, G12V)
- Construct: G12V-mutant human KRAS (amino acid residues 1-188) with FLAG tag was purified from E. coli; made in house; host or cells: E. coli
- Test: KRAS Binding Competition Assay (AlphaScreen; biotinylated KRpep-2d analogue), G12V
- Measurement Setup: geometric mean, read-out: KRAS GMean IC50 (uM) MUTATION: G12V
Measurement Kind: IC50

// worked examples, IC50 included
CN1CCC[C@H]1COc1nc(N2C[C@H]3CC[C@@H](C2)N3C(=O)C(O)CO)c2ccc(-c3cc(O)cc4ccccc34)c(F)c2n1 (stereo partly drawn)    10 to 100 µM
CN1CCC[C@H]1COc1nc(N2C[C@H]3CC[C@@H](C2)N3C(=O)CCS(N)(=O)=O)c2ccc(-c3cc(O)cc4ccccc34)c(F)c2n1    0.0001 to 10 µM
CN1CCC[C@H]1COc1nc(N2C[C@H]3CC[C@@H](C2)N3)c2ccc(-c3c[nH]c4ccc(C#N)cc34)c(F)c2n1    100 to 1000 µM
O=C(N[C@H]1CC[C@@H](O)C1)N1[C@@H]2CC[C@H]1CN(c1nc(OCC34CCCN3CCC4)nc3cc(-c4cc(O)cc5ccccc45)ccc13)C2    0.0001 to 10 µM
CN1CCC[C@H]1COc1nc(N2[C@@H]3CC[C@H]2CN(C(=N)N)C3)c2ccc(-c3cc(O)cc4ccccc34)cc2n1    10 to 100 µM

The record that follows has no IC50 shown yet.
Ask: Query (compound): `CN1CC[C@@H](NC(=O)N2C3COCC2CN(c2nc(OC[C@@H]4CCCN4C)nc4c(F)c(-c5cc(O)cc6ccccc56)ccc24)C3)C1` ; field requested: IC50
Result: 0.0001 to 10 µM

---

- Target Entity: G12V-mutant human KRAS (amino acid residues 1-188) (Homo sapiens, UniProt P01116, G12V)
- Construct: G12V-mutant human KRAS (amino acid residues 1-188) with FLAG tag was purified from E. coli; made in house; host or cells: E. coli
- Test: KRAS Binding Competition Assay (AlphaScreen; biotinylated KRpep-2d analogue), G12V
- Measurement Setup: geometric mean, read-out: KRAS GMean IC50 (uM) MUTATION: G12V
Listing of recorded IC50 by entry.

// worked examples, IC50 included
CN1CCC[C@H]1COc1nc(N2CC3CCC(C2)N3)c2ccc(N3CC(O)Cc4ccccc43)cc2n1 (mixture of isomers)    10 to 100 µM
CN1CCC[C@H]1COc1nc(N2C[C@H]3CC[C@@H](C2)N3CC(=O)N2CCNCC2)c2ccc(-c3cc(O)cc4ccccc34)c(F)c2n1    100 to 1000 µM

Ask: Query (compound): `CN1CCC[C@H]1COc1nc(N2[C@@H]3CC[C@H]2CN(C(=O)c2cc[nH]n2)C3)c2ccc(-c3cc(O)cc4ccccc34)cc2n1` ; field requested: IC50
Result: 10 to 100 µM

Ask: Query (compound): `CN1CCc2c(cccc2Oc2nc(N3C[C@H]4CC[C@@H](C3)N4)c3ccc(-c4cc(O)cc5ccccc45)c(F)c3n2)C1` ; field requested: IC50
Result: 10 to 100 µM

Ask: Query (compound): CN1CCC[C@H]1COc1nc(N2CC3COCC(C2)N3C(=O)NC2CCOC2)c2ccc(-c3cc(O)cc4ccccc34)c(F)c2n1 (mixture of isomers) ; field requested: IC50
Result: 0.0001 to 10 µM

Ask: Query (compound): `Oc1cc(-c2ccc3c(N4[C@@H]5CC[C@H]4CNC5)nc(CCc4ccccn4)nc3c2)c2ccccc2c1` ; field requested: IC50
Result: 10 to 100 µM

Ask: Query (compound): `CN1CCC[C@H]1COc1nc(N2C[C@H]3CC[C@@H](C2)N3)c2ccc(N3CCNc4ccccc43)c(F)c2n1` ; field requested: IC50
Result: 10 to 100 µM
